# System: MS2 coat protein
# EXPERIMENTAL PROTOCOL: apparent KD of MS2 coat protein; higher = weaker reporter binding
# PROTOCOL CONDITIONS: Eterna round: R107; input ligand: tryptophan 2.4 mM
TEST READOUT: apparent KD of MS2 coat protein (nM)
Dear colleague, please return just the value in nM, with no unit written.

RESIDUE SEQUENCE	TEST READOUT	MEASURE UNIT	RECORDED MEASUREMENT
UUGUUGUACGGAAGGAGCGUGUAAGAUUAAGAACAUGAGGAUCACCCAUGUUUUAAGGGAACACAGGUAGGUCGCCGUGUGGUGG [11.Q]	apparent KD of MS2 coat protein	nM	16.2

Suppose we examine the sequence GGAUAGGACACGGCCGCCACUACCUAGGAUACUAGCAACAUUUGGGUACGUGAGGAUCACCCACGUAGGACCGGGUGUCCUAUCG ; what apparent KD of MS2 coat protein value has been reported?
20.4

Suppose we examine the sequence CGAUCUUUCGAAAGAAGGAUCUUGUCUGAUACCAGAGACGAAAGUCUCCCUUGGCAGCAGUGCCAACAUGAGGAUCACCCAUGUU [Theophylline A 11] ; what apparent KD of MS2 coat protein value has been reported?
15.5

Suppose we examine the sequence UUACAUGAGGAUCACCCAUGUCAUACAGAAGGAGCGUCACAUAAGACAGGUAGGUCGCUGUUAUUUAAUACUAUUAUAUCCUCUA [JR_Nu_ExcArginiA_Sub027] ; what apparent KD of MS2 coat protein value has been reported?
32.8

Suppose we examine the sequence AAACAUGAGGAUCACCCAUGUAAUUCAGAAGGAGCGUCAUUAUUGACAGGUAGGUCGCUGAUAAAAUUUCUAUACAUCAUGUAUA [JR_SSArginiA_Sub013] ; what apparent KD of MS2 coat protein value has been reported?
13.3

Suppose we examine the sequence AUGUAGAACCGAAGGAGCGCGAUAACAUGAGGAUCACCCAUGUAGCUUUGGUGGCCUCGAUCGCAGGUAGGUCGCGGAAGUAGUA [Exclusion - Arginine B / A] ; what apparent KD of MS2 coat protein value has been reported?
155

Provenance of the data: the supplement of paper PMC9170038
